The reader will find reported self-cleavage values listed item by item below.
B1: Hairpin Ribozyme (parent)
chain: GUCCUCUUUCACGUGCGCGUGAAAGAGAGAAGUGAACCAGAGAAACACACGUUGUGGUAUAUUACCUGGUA

# Variants of: B1
# experimentSummary: self-cleavage, relative activity (ratio to wild type); higher = more cleavage; co-transcriptional

These recorded examples may help you get a feel for the data.
residueString	self-cleavage
GUCCUCUUUCACGUGCGCGUGAAAGAGAGAAGUGGACCAGAGAAACAAACGUUGUGGUAUAUUACCUGGUA [A35G C48A]	0.198
GUCCUCUUUCACGUGCGCGUGAAAGAGAGAAGUGAGCCAGAGAAACACACGUUGUGGUAUUUUACCUGGUA [A36G A61U]	0.205
GUCCUCUUUCACGUGCGCGUGAAAGAGAGAAGAGAACCAGAGAAACACACAUUGUGGUAUAUUACCUGGUA [U33A G51A]	0.177
GUCCUCUUUCACGUGCGCGUGAAAGAGAGAAUUGAACCAGAGAAACACACGUUGUGGUAUAUUGCCUGGUA [G32U A64G]	0.162

Task item: Tell us which self-cleavage value is on record for GUCCUCUCUCACGUGCGCGUGAAAGAGAGAAGUGAUCCAGAGAAACACACGUUGUGGUAUAUUACCUGGUA [U8C A36U]
Reply: 0.393

Task item: Tell us which self-cleavage value is on record for GUCCUCUUUCACGUGCGCGGGAAAGACAGAAGUGAACCAGAGAAACACACGUUGUGGUAUAUUACCUGGUA [U20G G27C]
Reply: 0.165

Task item: Tell us which self-cleavage value is on record for GUCCUCUUUCACGUGCGCGUGAAAGAGAGAAGUGAAUCAGAGAAACACACGUUGUGGUAUAUUUCCUGGUA [C37U A64U]
Reply: 0.242

Task item: Tell us which self-cleavage value is on record for GUCCUCUUUCACGUGCGCGUGAAAGAGAGAAGUGAAACAGCGAAACACACGUUGUGGUAUAUUACCUGGUA [C37A A41C]
Reply: 0.365

Task item: Tell us which self-cleavage value is on record for GUCCUCUUUCACGUGCGCGUGAAAGAGAGAAUUGAACCAGAGAAACACACGUUGUGGUAUAUUUCCUGGUA [G32U A64U]
Reply: 0.126

Task item: Tell us which self-cleavage value is on record for GUCCUCUUUCACGUGCGCGUGAAAGAGAGAAGUGAACCAGAUAAACACACGUUGAGGUAUAUUACCUGGUA [G42U U55A]
Reply: 0.069

Task item: Tell us which self-cleavage value is on record for GUCCACUUUCACGUGCGCGUGAAAGAGAGAAGUGAACCAGAGAAACCCACGUUGUGGUAUAUUACCUGGUA [U5A A47C]
Reply: 0.187

Task item: Tell us which self-cleavage value is on record for GUCCUCUUUCACGUGCGCGUGGUAGAGAGAAGUGAACCAGAGAAACACACGUUGUGGUAUAUUACCUGGUA [A22G A23U]
Reply: 0.59
